target: T1, hVSIG4(S)-hFc (human); experiment: western blot, 100 ng hVSIG4 short-hFc (FIG. 11B)
T1 construct: also called VGIG4(S)-Fc; hVSIG4 short-hFc (S)
Property Name: binding result

>>> result("SA2291 (antibody, V domains shown) VH: QMQLVESGGGLVKPGGSLRLSCAASGFTFSDHYMSWIRQAPGKGLEWVSSISSGGGTIYYADSVKGRFTISRDNAKNSLYLQMNSLRAEDTAVYYCARREYDSDGHYYFDYWGQGILVTVSS VL: SYELTQPPSVLVSPGQTARITCSGDALPKQYAYWYQQKPGQAPVLVMYKDNVRPSGIPERFSGSSSGTTVTLTISRVQAEDEADYYCQSVDSSDTSVVFGGGTKLTVL")
"binds"
>>> result("SA2455 (antibody, V domains shown) VH: QMQLVESGGGLVKPGGSLRLSCAASGFTFSDYYMSWIRQAPGKGLEWVSYISSSGSTIYYADSVKGRFTISRDNAKNSLYLQMNSLRAEDTAVYYCARPGYYYGLDVWGQGTTVTVSS VL: DIQMTQSPSTLSASVGDRVTITCRASQSISSWLAWYQQKPGIAPKLLIYQASILDSGVPSRFSGSGSGTEFTLTISSLQPDDFATYYCQQYSSLWTFGPGTKVDIK")
"binds"
